Origin of values: ChEMBL document CHEMBL6109085

- procedure.summary: Microsomal stability in human liver microsomes assessed as half-life preincubated for 5 mins followed by NADPH and UDP-GlcUA addition and measured after 30 to 120 mins by UHPLC analysis
- Type: ADME, Microsome
- test.conditions: time 35-125 min
Could you please report measured half-life for the items listed next?
Write the answer as a number in h, unit excluded.

Item: "O=C(Oc1ccc2c(c1)-c1nc3nonc3nc1C2=O)c1ccccc1" | half-life: 1.16

Item: "O=C1c2ccc(OCCc3ccc(F)cc3)cc2-c2nc3nonc3nc21" | half-life: 0.715

Item: "O=C1c2ccc(OCCc3cccc(C(F)(F)F)c3)cc2-c2nc3nonc3nc21" | half-life: 2.65

Item: "O=C1c2ccc(OCCCc3ccccc3)cc2-c2nc3nonc3nc21" | half-life: 5.43

Item: "O=C1c2ccc(OCc3ccc(Br)cc3)cc2-c2nc3nonc3nc21" | half-life: 3.97

Item: "O=C(COc1ccc2c(c1)-c1nc3nonc3nc1C2=O)OCc1ccccc1" | half-life: 0.075

Item: "O=C1c2ccc(OCc3ccccc3)cc2-c2nc3nonc3nc21" | half-life: 2.74

###

- procedure.summary: Cytotoxicity against human HaCaT cells assessed as reduction in cell survival index incubated for 48 hrs by MTT assay
- Assay type: toxicity, cell-based
readout.label: IC50 at 48 h (µM)
Write the answer as a number in µM, unit excluded.

Item: "O=C1c2ccc(OCCc3cccc(C(F)(F)F)c3)cc2-c2nc3nonc3nc21" | IC50 at 48 h: 17

Item: "O=C1c2ccc(OCCCc3ccccc3)cc2-c2nc3nonc3nc21" | IC50 at 48 h: 28

###

- procedure.summary: Microsomal stability in human liver microsomes assessed as intrinsic clearance preincubated for 5 mins followed by NADPH and UDP-GlcUA addition and measured after 30 to 120 mins by UHPLC analysis
- Format: ADME, Microsome
- test.conditions: time 35-125 min, read-out: CLH
Criterion: microsomal CLint meeting or surpassing 8 µL/min/mg. Met: MET. Not met: NOT MET.

Assess whether reported microsomal CLint for "O=C(COc1ccc2c(c1)-c1nc3nonc3nc1C2=O)OCc1ccccc1" sits at 8 µL/min/mg or higher.
MET

Assess whether reported microsomal CLint for "O=C1c2ccc(OCc3ccccc3)cc2-c2nc3nonc3nc21" sits at 8 µL/min/mg or higher.
MET

Assess whether reported microsomal CLint for "O=C1c2ccc(OCc3ccc(Br)cc3)cc2-c2nc3nonc3nc21" sits at 8 µL/min/mg or higher.
NOT MET

Assess whether reported microsomal CLint for "O=C1c2ccc(OCCc3cccc(C(F)(F)F)c3)cc2-c2nc3nonc3nc21" sits at 8 µL/min/mg or higher.
MET

Assess whether reported microsomal CLint for "O=C(Oc1ccc2c(c1)-c1nc3nonc3nc1C2=O)c1ccccc1" sits at 8 µL/min/mg or higher.
MET

Assess whether reported microsomal CLint for "O=C1c2ccc(OCCc3ccc(F)cc3)cc2-c2nc3nonc3nc21" sits at 8 µL/min/mg or higher.
MET

Assess whether reported microsomal CLint for "O=C1c2ccc(OCCCc3ccccc3)cc2-c2nc3nonc3nc21" sits at 8 µL/min/mg or higher.
NOT MET
